Would you mind telling me the reported Population Mitochondria Different-Phenotype (%) of each entry?
Tested on: Fibroblast
Assay: Multiplex assay against human fibroblast
Assay type: toxicity, cell-based
Conditions: 24 h, 1 µM, compound concentration 1 uM, replicate 2
The figure you give is taken to be in %; do not add the unit.

Q. Population Mitochondria Different-Phenotype (%) for Cc1nc(-c2ccc(-c3ccc(C(=O)N4CCc5cc6c(cc54)C4(CCN(C)CC4)CO6)cc3)c(C)c2)no1 [SB-224289] ?
A. 38

Q. Recorded Population Mitochondria Different-Phenotype (%) for CC(C)NCC(O)COc1ccc(CCOCC2CC2)cc1.Cl (centres undefined) [BETAXOLOL HYDROCHLORIDE] , please?
A. 6

Q. What measured Population Mitochondria Different-Phenotype (%) goes with O=C1NCN(c2ccccc2)C12CCN(CCCOc1ccc(F)cc1)CC2 [SPIRAMIDE] ?
A. 7

Q. Suppose we examine the compound CN(C)C(=O)N[C@H]1CC[C@H](CCN2CCN(c3cccc(Cl)c3Cl)CC2)CC1.Cl [CARIPRAZINE HYDROCHLORIDE] ; what Population Mitochondria Different-Phenotype (%) value has been reported?
A. 22

----------
System: HEK-293T
Assay: Multiplex assay against HEK293T
Type: toxicity, cell-based
Details: human, 48 h, 1 µM, compound concentration 1 uM, replicate 2
READOUT TYPE: Population Hoechst High Intensity Objects (%)
Write it as a number; the unit % goes unstated.

Q. Please give the measured Population Hoechst High Intensity Objects (%) for this compound: COc1cccc([C@@H](C)NCCCc2ccccc2Cl)c1.Cl [TECALCET HYDROCHLORIDE]
A. 3

Q. Please look up its Population Hoechst High Intensity Objects (%): Cn1cc(-c2[nH]c3cc(NC(=O)[C@H](N)C4CCCCC4)cc4c3c2C=NNC4=O)cn1
A. 17

Q. Look at this compound and give its reported Population Hoechst High Intensity Objects (%). Cc1csc2c(N[C@@H](C)CN3CCN(S(=O)(=O)c4ccc(Cl)c(Cl)c4)CC3)ncnc12
A. 8

Q. Field request: Population Hoechst High Intensity Objects (%) | item: CC(C)NCC(O)COc1ccc(CCOCC2CC2)cc1.Cl (stereo not drawn) [BETAXOLOL HYDROCHLORIDE]
A. 3

Q. Tell me the measured Population Hoechst High Intensity Objects (%) of CN1CCN(CCOc2cc(OC3CCOCC3)c3c(Nc4c(Cl)ccc5c4OCO5)ncnc3c2)CC1 [SARACATINIB] , please.
A. 5

Q. Value lookup for Population Hoechst High Intensity Objects (%); key = C=CC(=O)Nc1cccc(C(=O)Nc2ccc(Nc3cc(-c4[nH]c(SC)nc4C)ccn3)cc2)c1
A. 2

Q. Given the entry CC(C)(O)CNc1ncc(-c2ccnc(Nc3ccnc(Cl)c3)n2)c(CC2CC2)n1 , report its measured Population Hoechst High Intensity Objects (%).
A. 5

Q. Which Population Hoechst High Intensity Objects (%) is listed for CN1CCC[C@@H]1CCO[C@](C)(c1ccccc1)c1ccc(Cl)cc1.O=C(O)/C=C/C(=O)O [CLEMASTINE FUMARATE] ?
A. 1

Q. // query Population Hoechst High Intensity Objects (%) value for entry O=C1NCN(c2ccccc2)C12CCN(CCCOc1ccc(F)cc1)CC2 [SPIRAMIDE]
A. 2

Q. Look at this compound and give its reported Population Hoechst High Intensity Objects (%). COc1cc(-n2cnc3cc(-c4ccc(Cl)cc4)sc3c2=O)ccc1OCCN1CCCC1
A. 3

Q. Consider the compound COc1ncc(-c2ccc3nccc(-c4ccnnc4)c3c2)cc1NS(=O)(=O)c1ccc(F)cc1F [OMIPALISIB] and give its measured Population Hoechst High Intensity Objects (%).
A. 7

Q. Fill in: Population Hoechst High Intensity Objects (%) of Cl.N#Cc1ccc2[nH]cc(CCCCN3CCN(c4ccc5oc(C(N)=O)cc5c4)CC3)c2c1 [VILAZODONE HYDROCHLORIDE] is ___
A. 4

Q. Population Hoechst High Intensity Objects (%) for CC[C@H](C)C(=O)O[C@H]1C[C@@H](C)C=C2C=C[C@H](C)[C@H](CC[C@@H]3C[C@@H](O)CC(=O)O3)[C@H]21 [LOVASTATIN] ?
A. 3

Q. I would be grateful if you could share the reported Population Hoechst High Intensity Objects (%) for C[C@@H](NCCCc1cccc(C(F)(F)F)c1)c1cccc2ccccc12.Cl [CINACALCET HYDROCHLORIDE] .
A. 5

Q. Entry Cc1c(-c2ccc(O)cc2)n(Cc2ccc(OCCN3CCCCCC3)cc2)c2ccc(O)cc12 [BAZEDOXIFENE] : reported Population Hoechst High Intensity Objects (%) = ?
A. 2

Q. May I ask what Population Hoechst High Intensity Objects (%) has been recorded for CN1CCN(c2ccc(OC(F)(F)F)c(Nc3ncc4c(n3)-c3c(c(C(N)=O)nn3CCO)CC4)c2)CC1 [ONVANSERTIB] ?
A. 8

Q. Using the record for OC1(c2ccc(Cl)cc2)CCN(Cc2c[nH]c3ccccc23)CC1 , report its Population Hoechst High Intensity Objects (%).
A. 2

Q. // lookup Population Hoechst High Intensity Objects (%) for Nc1c(C(=O)NCc2ccc(C(=O)NCCCC3CCCCC3)cc2)cnn1-c1ccccc1 [SR-318]
A. 4

Q. # get_value(readout='Population Hoechst High Intensity Objects (%)', item= c1cn2cc(-c3ccc4cn[nH]c4c3)nc(Nc3ccc(N4CCOCC4)cc3)c2n1 [ENTOSPLETINIB] )
A. 2

Q. What Population Hoechst High Intensity Objects (%) value was documented for this compound, Cc1cc(C)cc(-c2cnc3cc(Cl)c(-c4cccc(O)c4)cc3c2OCCCN)c1 ?
A. 6

Q. Endpoint output: Population Hoechst High Intensity Objects (%) of Cc1nc(-c2ccc(-c3ccc(C(=O)N4CCc5cc6c(cc54)C4(CCN(C)CC4)CO6)cc3)c(C)c2)no1 [SB-224289] . Value?
A. 4

Q. Fill blank: measured Population Hoechst High Intensity Objects (%) of the compound C=CC(=O)Nc1ccc2ncnc(Nc3ccc(OCc4cccc(F)c4)c(Cl)c3)c2c1.Cc1ccc(S(=O)(=O)O)cc1 is ____.
A. 2

Q. // returns reported Population Hoechst High Intensity Objects (%) for input CN(C)CC#Cc1ccc(OCCCc2sc(N3CCc4cccc(C(=O)Nc5nc6ccccc6s5)c4C3)nc2C(=O)O)c(F)c1 [A-1155463]
A. 4

Q. Data request, read-out Population Hoechst High Intensity Objects (%), for Cc1[nH]c(/C=C2\C(=O)Nc3ccc(S(=O)(=O)N(C)c4cccc(Cl)c4)cc32)c(C)c1C(=O)N1CCN(C)CC1
A. 1

Q. Which measured Population Hoechst High Intensity Objects (%) value corresponds to CNc1nc(NCc2ccc(NS(C)(=O)=O)cc2Cl)cc(-c2ccccn2)n1 ?
A. 3

Q. Return reported Population Hoechst High Intensity Objects (%); argument: CN1CCCC(n2nc(Cc3ccc(Cl)cc3)c3ccccc3c2=O)CC1.Cl (stereo not drawn) [AZELASTINE HYDROCHLORIDE]
A. 5

Q. What does the data say about its Population Hoechst High Intensity Objects (%)? Entry: CN(C)C(=O)N[C@H]1CC[C@H](CCN2CCN(c3cccc(Cl)c3Cl)CC2)CC1.Cl [CARIPRAZINE HYDROCHLORIDE]
A. 2

Q. Given CN(C)C(=O)/C(C#N)=C/c1ccc(-c2nc3cnc4[nH]ccc4c3n2C2CCCCC2)o1 , state its recorded Population Hoechst High Intensity Objects (%).
A. 3
